Measured values drawn from PubChem BioAssay (NCI) for this set.

System: HS 578T breast
Assay: NCI-60 one-dose screen, 48 h
Settings: 10 µM unless noted
About 83,000 compounds went through this panel and 20% of them were active in at least one assay; those are over-represented in the sample as a whole. Calls of active or inactive are those of the source. The calls were made as follows: active = growth percent below 10; inactive = the rest.
Possible outcomes: YES = active, NO = inactive

- CS(=O)(=O)c1ccc(/C(=N/N=C(N)N)c2ccc(F)cc2)cc1: NO
- C[C@H](Nc1ncnc2ccc(-c3cnc(Cl)c(NS(C)(=O)=O)c3)cc12)c1ccccc1: YES
- Brc1cc(-c2cc(-c3ccc4c(c3)OCCO4)[nH]n2)cs1: NO
- Nc1ccc(Nc2ncnc3sc4c(c23)CCN(Cc2ccccc2)C4)cc1: NO
- Cn1cc(-c2nnc(N)nc2-c2c[nH]c3ccc(Br)cc23)c2cc(Br)ccc21: NO

* * *

Tested on: A498 renal
Experiment: NCI-60 one-dose screen, 48 h (100 = growth as untreated, 0 = no growth, -100 = all killed)
Conditions: 10 µM unless noted
This is part of a sample that, as a whole, favours compounds with a hit. Of some 83,000 tested, about 20% had one in any assay.
growth strictly under 80% means 1 (yes); at 80% or over means 0 (no).

- CN(C)CCCOc1ccc(C(=C(c2ccccc2)C2CCCC2)c2ccc(OCCCN(C)C)cc2)cc1: 1 (yes)
- COc1ccc(/C(=N\NC(N)=S)c2ccc(Cl)cc2)cc1OC: 1 (yes)
- CCN(CC)c1ccc(/C=N/NC(=O)c2ccc(NS(C)(=O)=O)cc2)c(O)c1: 1 (yes)
- CCCCOc1ccc(S(=O)(=O)N2CCN(c3nc(C)cc(N4CCOCC4)n3)CC2)cc1: 1 (yes)
- N#Cc1c(-c2ccc(Br)cc2)cc(-c2c[nH]c3ccccc23)nc1N: 1 (yes)
- COc1ccc(C2CC(c3cccc(OCCCCOc4cccc(C5=NN(C(C)=O)C(c6ccc(OC)cc6)C5)c4)c3)=NN2C(C)=O)cc1 (stereo unspecified): 1 (yes)
- CC[C@]12C=CCN3CC[C@]4(C(=C(C(=O)OC)C1)Nc1cc5c(cc14)[C@@H]1[C@H](O5)[C@@H](O)[C@@]4(CC)CC(C(=O)OC)=C5Nc6cc(O)ccc6[C@@]56CCN1C46)C32 (stereo partly specified): 1 (yes)
- N#C/C(=N\Nc1ccc(F)cc1)C(=O)Nc1cc(-c2ccccc2)nn1-c1ccccc1: 1 (yes)
- O=C(CCCCCCN1CC(=O)N2[C@@H](c3cccs3)c3[nH]c4ccccc4c3C[C@H]2C1=O)NO: 0 (no)
- C/C(=N/N)c1nnn(-c2ccc(Br)cc2)c1C: 0 (no)
- COc1cc(/C=C2/C(=O)Nc3ccc(Cl)cc32)ccc1OCc1ccc(Cl)cc1: 0 (no)
- O=C(/C=C/c1cccc(Br)c1)c1cccc(OCCCCOc2cccc(C(=O)/C=C/c3cccc(Br)c3)c2)c1: 0 (no)
- C/C(=N\NC(N)=S)c1nnn(-c2ccc([N+](=O)[O-])cc2)c1C: 0 (no)
- CCC(=C(c1ccc(OCCN2CCCCCC2)cc1)c1ccc(OCCN2CCCCCC2)cc1)c1ccc(Cl)cc1: 0 (no)
- NC(=O)c1c(NC(=O)c2ccc(C(F)(F)F)cc2)sc2c1CCC(=O)C2: 0 (no)
- Clc1cccc(/C=N/Nc2nc(N/N=C/c3cccc(Cl)c3)nc(N3CCCCC3)n2)c1: 0 (no)
- Cc1ccsc1[C@H]1c2[nH]c3ccccc3c2C[C@H]2C(=O)N(CCCCCCC(=O)NO)CC(=O)N12: 0 (no)
- CN1CCN(Cc2ccc(NC(=O)c3cncc(C#Cc4cnc5ccc(N6CCOCC6)nn45)c3)cc2C(F)(F)F)CC1: 1 (yes)
- CN(C)CCNc1ccc2ncc(C#Cc3cncc(C(=O)Nc4ccc(CN5CCN(C)CC5)c(C(F)(F)F)c4)c3)n2n1: 0 (no)
- Cc1nc(N)sc1-c1csc(Nc2ccc(C(F)(F)F)cc2)n1: 0 (no)
- CN1CCN(Cc2ccc(NC(=O)c3cncc(C#Cc4cnc5ccc(OC6CCOCC6)nn45)c3)cc2C(F)(F)F)CC1: 1 (yes)
- C#C[C@]1(O)CC[C@H]2[C@@H]3CC=C4c5sc(Nc6cc(C)cc(C)c6)nc5CC[C@]4(C)[C@H]3CC[C@@]21C: 1 (yes)
- CCN(CC)c1ccc(/C=N/NC(=O)c2ccc(NS(C)(=O)=O)cc2)cc1: 1 (yes)
- Nn1c(=O)n(-c2cccc(C(F)(F)F)c2)c(=O)c2cc(-c3ccc(F)cc3F)ccc21: 1 (yes)
- COc1ccc(N2CCN(C3=C(Cl)C(=O)c4ncccc4C3=O)CC2)cc1: 0 (no)
- NS(=O)(=O)c1ccc(Nc2nc(N/N=C/c3ccc4c(c3)OCO4)nc(Nc3ccccc3)n2)cc1: 1 (yes)
- COc1cc2oc(-c3cccc(NC(=O)c4cccc([N+](=O)[O-])c4)c3)cc(=O)c2c(OC)c1OC: 1 (yes)
- CC1=C(SCC(=O)OCCCCCC(C)C)C(=O)c2ccccc2C1=O: 0 (no)
- CCOC(=O)c1ccc(NC2=C(Cl)C(=O)c3nc(C)ccc3C2=O)cc1: 1 (yes)
- CCOC(=O)c1c(NC(=O)c2cccc(C(F)(F)F)c2)sc2c1CCC(=O)C2: 0 (no)
- COc1ccc(C2c3[nH]c4ccc(Cl)cc4c3CCN2c2oc(CO)nc2C#N)cc1 (stereo unspecified): 1 (yes)
- Cc1ccc(C(=O)Nc2ccc(CNCCN3CCNCC3)c(C(F)(F)F)c2)cc1C#Cc1cnc2cccnn12: 1 (yes)
- O=C(Nc1ccc(N=Cc2c(O)[nH]c3ccccc23)cc1)Nc1ccc(S(=O)(=O)Nc2ncccn2)cc1: 0 (no)
- O=S(=O)(Oc1ccc(-c2cn3ccoc3n2)cc1)C1CCCCC1: 0 (no)
